Cited source: ChEMBL document CHEMBL4420063

Test system: KG-1a
test: Inhibition of cell proliferation in human KG1a cells assessed as reduction in cell number by MTT assay
Format: functional, cell-based
// pIC50 lookup, one value per entry
Just so you know, pIC50 here is -log10 of the concentration in molar units; reply with that number alone.

1) O=C1c2ccccc2C(=O)c2c1cc(S(=O)(=O)Nc1ccc(C(F)(F)F)cc1)c(O)c2O    4.77

Kindly consider the entry below.
Q) Short answer please: pIC50, KG-1a, entry O=C1c2ccccc2C(=O)c2c1ccc(O)c2O [ATHRAQUINONES A]
A) 4.22

###

Tested on: NCI-H1299
test: Inhibition of cell proliferation in human NCI-H1299 cells assessed as reduction in cell number by MTT assay
Assay type: functional, cell-based
readout.kind: IC50 (µM)
Record the value in µM, omitting the unit from your answer.

Q) Which IC50 value is on record for O=C1c2ccccc2C(=O)c2c1cc(S(=O)(=O)Nc1ccc(C(F)(F)F)cc1)c(O)c2O ?
A) 25.6
